For each of the compounds below, state its cFRET/donor change.
# Tested on: C2C12 (NDUFB8-AcGFP / COX8A-DsRed-Monomer FRET reporter)
# Assay notes: cFRET/donor change relative to DMSO, normalised to beta-lapachone positive control (supercomplex I-IV assembly) (fraction of beta-lapachone effect); higher = more respiratory supercomplex assembly
# Condition: 40 µM; 24 h
Structures can show the parent of a compound that is named as a salt. Over roughly 1,000 compounds, “cFRET/donor change relative to DMSO, normalised to beta-lapachone positive control (supercomplex I-IV assembly)” has its median near 0.18; the lowest 2% begin near -1. For the sample, the lowest values were picked, then their nearest neighbours and some compounds at random.

Some compounds with known cFRET/donor change results, for comparison:
1. Clc1ccc(N2CCN(Cc3cc4ccccn4n3)CC2)cc1
0.359
2. O=C1NCCc2[nH]c(-c3ccncc3)cc21
-0.0657
3. N#CC(=C(/N)Sc1ccccc1N)/C(C#N)=C(/N)Sc1ccccc1N
1.14
4. CCCCC#Cc1nc(NC)c2ncn([C@@H]3O[C@H](CO)[C@@H](O)[C@H]3O)c2n1
0.242

Count: 8. Required value per item: cFRET/donor change.
1. C[C@@H](c1ncncc1F)[C@](O)(Cn1cncn1)c1ccc(F)cc1F
2. NC(N)=NCc1cccc(I)c1 [m-Iodobenzylguanidine hemisulfate]
3. O=C(O)COCCN1CCN(C(c2ccccc2)c2ccc(Cl)cc2)CC1 (centres undefined) [Cetirizine dihydrochloride]
4. Cc1cc(C)c(/C=C2\C(=O)Nc3ccccc32)[nH]1
5. C[C@H](c1ccc(F)cc1CCCC(=O)O)N(c1cc(F)ccc1F)S(=O)(=O)c1ccc(Cl)cc1
6. O=C(CCc1ccncc1)NNC(=O)N1Cc2ccccc2Oc2ccc(Cl)cc21
7. COc1cc2nc(N3CCCN(C)CC3)nc(NC3CCN(Cc4ccccc4)CC3)c2cc1OC
8. Fc1ccc2[nH]c(CN3CCN(c4ccccn4)CC3)cc2c1

Found:
0.181
-0.0455
0.511
-2.59
0.476
0.597
0.186
0.168

Count: 3. Required value per item: cFRET/donor change.
1. O=C1CCCC(=O)C1C(=O)c1ccc(C(F)(F)F)cc1[N+](=O)[O-]
2. c1cnc2cc3c(cc2n1)[C@@H]1CNC[C@H]3C1 [Varenicline tartrate]
3. NCC(O)c1ccc(O)c(O)c1 (racemic) [(±)-Norepinephrine (+)bitartrate]

Found:
[0.0147, 0.22, -0.03]

----------
# Test system: C2C12 (NDUFB8-AcGFP / COX8A-DsRed-Monomer FRET reporter)
# Assay notes: cFRET/donor change relative to DMSO, normalised to beta-lapachone positive control (supercomplex I-IV assembly) (fraction of beta-lapachone effect); higher = more respiratory supercomplex assembly
# Condition: 40 µM; 24 h
Structures can show the parent of a compound that is named as a salt. Over roughly 1,000 compounds, “cFRET/donor change relative to DMSO, normalised to beta-lapachone positive control (supercomplex I-IV assembly)” has its median near 0.18; the lowest 2% begin near -1. The full list was thinned out, with the lowest values kept by preference.
Attribute measured: cFRET/donor change
Numbers only.

1. CCOC(=O)[N-]c1c[n+](N2CCOCC2)no1
0.0144
2. O=C1/C(=C/c2cccs2)CC/C1=C\c1cccs1
0.584
3. NS(=O)(=O)c1nn2cc(-c3ccccc3)nc2s1
-0.298
4. O=C(O)c1cc(=O)c2ccccc2[nH]1
-0.161
5. O=C(NOC[C@H](O)CO)c1ccc(F)c(F)c1Nc1ccc(I)cc1F
0.21
6. O=c1cc(-c2ccccc2)[nH]c2nc(Cl)ccc12 [7-Chloro-4-hydroxy-2-phenyl-1,8-naphthyridine]
-1.98
7. Oc1cc2c(c(Cl)c1O)CCNCC2c1ccccc1 (racemic) [(±)-6-Chloro-PB hydrobromide]
2.85
8. Cc1cn(C2C=CC(CO)O2)c(=O)[nH]c1=O (stereo not given) [2',3'-didehydro-3'-deoxythymidine]
0.515
9. Cc1ccc(O)c(N=Nc2ccccc2)n1
0.375

Lookup: Reported cFRET/donor change for COc1cc(Nc2c(C#N)cnc3cc(OCCCN4CCN(C)CC4)c(OC)cc23)c(Cl)cc1Cl : what is it?
Found: 0.241
